B1: Azoarcus group I ribozyme (parent)
chain: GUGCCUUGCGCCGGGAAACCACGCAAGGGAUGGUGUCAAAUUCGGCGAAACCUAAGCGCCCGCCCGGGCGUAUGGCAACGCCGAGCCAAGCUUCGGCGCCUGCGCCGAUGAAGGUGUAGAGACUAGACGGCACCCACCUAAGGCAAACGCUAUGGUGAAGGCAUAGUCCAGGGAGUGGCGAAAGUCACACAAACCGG

variants of: B1; assay: reverse-splicing fitness (ratio to wild type); higher = more active; in vitro selection; Mg2+ level not given
Use yes (1) when the recorded reverse-splicing fitness is no lower than 0.007; use no (0) when it is lower.

{"Mutation Id": "C82A A111G A145C C150A C169U U176A", "Qualitative Label": "yes (1)"}

In plain terms: is recorded reverse-splicing fitness at least 0.007 for C82A A111C A145G C150A C169A U176A ?
yes (1)

In plain terms: is recorded reverse-splicing fitness at least 0.007 for C82U A111G A145U U176C ?
yes (1)

In plain terms: is recorded reverse-splicing fitness at least 0.007 for C82A A111G A120U A145C C150A C169U U176G ?
no (0)

In plain terms: is recorded reverse-splicing fitness at least 0.007 for C82G A111U A120U C150G ?
yes (1)

In plain terms: is recorded reverse-splicing fitness at least 0.007 for A111G C150U C169G U176A ?
yes (1)

Entry source: the RNAGym collection of RNA variant scans (doi:10.1093/molbev/msab373)
